endpointLabel: logP
# respond with the number and nothing more

Fill in: logP of CC(C)(C)C(=O)OCOc1ccccc1C(N)=O is ___
2

Fill in: logP of CC(=O)OCOc1ccccc1C(N)=O is ___
0.52

Fill in: logP of CCCC(=O)OCOc1ccccc1C(=O)NCN1CCOCC1 is ___
1.34

Next:
Fill in: logP of CC(C)(C)C(=O)OCOc1ccccc1C(=O)NCN1CCOCC1 is ___
1.81

Fill in: logP of CCCC(=O)OCOc1ccccc1C(N)=O is ___
1.66

Fill in: logP of CCOC(=O)CC(CO)C(CC)c1cncn1C (centres undefined) is ___
0.73

Fill in: logP of CCC(C(=O)OCCc1ccccc1)C(COC(=O)c1ccccc1)Cc1cncn1C (centres undefined) is ___
4.6

Fill in: logP of O=C(NCN1CCOCC1)c1ccccc1O is ___
1.27

Fill in: logP of CC(=O)OCOc1ccccc1C(=O)NCN1CCOCC1 is ___
0.27

---

Conditions: 23 °C
endpointLabel: solubility (µM)
Respond with the bare value in µM.

Fill in: solubility of CC(C)(C)C(=O)OCOc1ccccc1C(N)=O is ___
2430
